- target.system: T1, Homo sapiens factor Bb protein (human, UniProt P00751 260-764)
- T1 construct: Bought from CompTech (A155); also called complement factor Bb; human factor Bb
- T1 sequence (P00751 260-764 limits assumed): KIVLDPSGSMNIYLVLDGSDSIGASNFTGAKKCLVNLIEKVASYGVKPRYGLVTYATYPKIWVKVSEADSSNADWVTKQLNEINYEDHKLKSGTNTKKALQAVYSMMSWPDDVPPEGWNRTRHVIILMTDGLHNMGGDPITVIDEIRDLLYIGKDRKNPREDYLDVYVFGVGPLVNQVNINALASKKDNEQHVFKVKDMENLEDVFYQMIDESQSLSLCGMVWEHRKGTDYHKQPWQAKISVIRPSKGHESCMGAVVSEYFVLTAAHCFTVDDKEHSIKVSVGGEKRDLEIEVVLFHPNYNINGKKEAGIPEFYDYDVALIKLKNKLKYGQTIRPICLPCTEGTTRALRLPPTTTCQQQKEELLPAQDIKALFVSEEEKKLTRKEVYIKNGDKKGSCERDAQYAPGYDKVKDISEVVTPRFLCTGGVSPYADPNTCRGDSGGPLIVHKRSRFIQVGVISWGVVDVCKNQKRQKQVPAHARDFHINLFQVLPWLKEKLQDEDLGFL
- assay.text: BLI Octet, biotinylated antibody on SA biosensors
readout.name: pKd
The read-out pKd is expressed as -log10 of concentration in moles per litre.

VH4/Vκ7 (antibody, V domains shown, Redesigned variant; cloned into the appropriate expression vector (IgG4v1 and kappa were used in the first round)) VH: EVQLVESGGGLVKPGGSLRLSCAASGFTFSNYAMSWVRQAPGKRLEWVATISNRGSYTYYPDSVKGRFTISRDNAKNSLYLQMSSLRSEDTALYYCARERPMDYWGQGTSVTVSS VL: DIQMTQSPSTLSASVGDRVTITCKASQDVGTAVAWYQQKPGKAPKLLIYWASTRHTGVPDRFSGSGSGTDFTLTISSLQAEDFAVYFCHQHSSNPLTFGQGTKLEIK; 8.72

Suppose we examine the binder VH6/Vκ6 (antibody, V domains shown, Redesigned variant; cloned into the appropriate expression vector (IgG4v1 and kappa were used in the first round)) VH: EVQLVESGGGLVKPGGSLRLSCAASGFTFSNYAMSWVRQAPGKRLEWVATISNRGSYTYYPDSVKGRFTISRDNAKNSLYLQMNSLRAEDTALYYCARERPMDYWGQGTLVTVSS VL: DIVMTQSPSFLSASVGDRVTITCKASQDVGTAVAWYQQKPGKAPKLLIYWASTRHTGVPDRFTGSGSGTDFTLTISSLQSEDFAVYFCHQHSSNPLTFGQGTKLEIK ; what pKd value has been reported? 8.72

Suppose we examine the binder VH7/Vκ7 (antibody, V domains shown, Redesigned variant; cloned into the appropriate expression vector (IgG4v1 and kappa were used in the first round); also called VH7/VκK7) VH: EVQLVESGGGLVKPGGSLRLSCAASGFTFSNYAMSWVRQTPEKRLEWVATISNRGSYTYYPDSVKGRFTISRDNAKNSLYLQMNSLRAEDTALYYCARERPMDYWGQGTLVTVSS VL: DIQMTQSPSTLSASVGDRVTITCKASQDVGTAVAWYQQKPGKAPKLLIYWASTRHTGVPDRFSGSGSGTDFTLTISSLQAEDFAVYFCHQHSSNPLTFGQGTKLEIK ; what pKd value has been reported? 8.54

Suppose we examine the binder Anti-factor Bb mouse monoclonal antibody (antibody, V domains shown, Mouse monoclonal antibody from a hybridoma; also called murine parental antibody; parent anti-factor Bb antibody) VH: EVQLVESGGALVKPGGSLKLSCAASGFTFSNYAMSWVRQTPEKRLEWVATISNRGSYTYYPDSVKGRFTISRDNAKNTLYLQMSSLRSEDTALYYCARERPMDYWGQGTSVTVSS VL: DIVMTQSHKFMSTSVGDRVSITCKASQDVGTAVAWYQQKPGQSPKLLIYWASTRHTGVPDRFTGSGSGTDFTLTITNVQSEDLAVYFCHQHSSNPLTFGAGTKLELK ; what pKd value has been reported? 8.72

Suppose we examine the binder VH0/Vκ0 (Chimeric) (antibody, V domains shown, also called chimeric antibody) VH: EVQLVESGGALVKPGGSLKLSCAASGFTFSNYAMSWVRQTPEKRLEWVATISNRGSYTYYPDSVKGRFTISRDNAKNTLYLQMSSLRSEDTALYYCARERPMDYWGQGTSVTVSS VL: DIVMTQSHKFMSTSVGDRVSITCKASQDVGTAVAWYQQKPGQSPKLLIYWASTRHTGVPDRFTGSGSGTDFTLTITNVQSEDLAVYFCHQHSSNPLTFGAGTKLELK ; what pKd value has been reported? 8.70
